Values from patent US10821100B2

- subject-of-test: Recombinant human mPGES-1 (Homo sapiens, UniProt O14684)
- Construct: made in house; host or cells: CHO cells (crude microsomal fractions)
- procedure-text: In-vitro screening of mPGES-1 inhibitors (inhibition of PGE2 formation from PGH2, HTRF detection)
- Format: biochemical
- condition: 10 μM test compound; mPGES-1 enzyme, crude microsomal fractions; read-out: Percentage inhibition at 10 μM
readout-name: inhibition at 10 µM (%)

# molecule, readout-unit, observed-measurement
records = [
    ("[O-][S+]1NC(c2c(F)cccc2Cl)=NN1c1ccc(Br)cc1 (stereo not shown)", "%", 68.2),
    ("CC1(C)CCC(n2nc(-c3cc(CNC(=O)C(C)(C)C)c(F)cc3Cl)[nH]c2=O)CC1", "%", 95),
    ("O=C(NCc1ccc(Cl)c(-c2nn(-c3ccc(C(F)(F)F)cc3)c(=O)[nH]2)c1)c1ccccc1F", "%", 99.5),
    ("Cc1ccc(CNC(=O)C(C)C)c(C)c1-c1nn(-c2ccc(C#CC(C)(C)C)cc2)c(=O)[nH]1", "%", 97.2),
    ("CC(C)(C)C(=O)NCc1cc(-n2nc(-c3ccc(C#CC4CC4)cc3)[nH]c2=O)c(Cl)cc1Cl", "%", 97.8),
    ("COc1cc(-n2nc(-c3c(Cl)cccc3C#N)[nH]c2=O)ccc1C(=O)Nc1ccc(F)c(C(F)(F)F)c1", "%", 92.4),
    ("COc1cc(-n2nc(-c3c(F)cccc3Cl)[nH]c2=O)ccc1C(=O)Nc1nnc(C(F)(F)F)s1", "%", 100),
]

----------
- subject-of-test: Recombinant human mPGES-1 (Homo sapiens, UniProt O14684)
- Sequence (O14684 1-152): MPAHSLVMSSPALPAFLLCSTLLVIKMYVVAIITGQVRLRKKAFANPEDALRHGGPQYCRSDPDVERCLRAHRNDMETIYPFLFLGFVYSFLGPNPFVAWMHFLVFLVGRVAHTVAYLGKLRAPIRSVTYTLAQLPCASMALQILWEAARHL
- procedure-text: In-vitro screening of mPGES-1 inhibitors (inhibition of PGE2 formation from PGH2, HTRF detection)
- condition: mPGES-1 enzyme; class symbols
# maps each entry to its IC50
readout-name: IC50

# compound-string, readout-name, observed-measurement
data = [
    ("CC(C)(CF)C(=O)NCc1ccc(Cl)c(-c2nn(-c3ccc(C(F)(F)F)cc3)c(=O)[nH]2)c1", "IC50", "< 50 nM"),
    ("O=C(NCc1ccc(Cl)c(-c2nn(-c3ccc(C(F)(F)F)cc3)c(=O)[nH]2)c1)c1ccno1", "IC50", "> 100 nM"),
    ("COc1cc(-n2nc(-c3cc(CNC(=O)C4CC4)ccc3Cl)[nH]c2=O)ccc1C(=O)Nc1cccc(C(F)F)c1", "IC50", "< 50 nM"),
    ("CC(C)(C)C(=O)NCc1ccc(Cl)c(-n2nc(-c3ccc(F)c(C(F)(F)F)c3)[nH]c2=O)c1", "IC50", "< 50 nM"),
    ("O=C(NCc1ccc(Cl)c(-c2nn(-c3ccc(C(F)(F)F)cc3)c(=O)[nH]2)c1)C1CCC1", "IC50", "< 50 nM"),
    ("CC(C)(CF)C(=O)NCc1cnc(C(F)F)c(-c2nn(-c3ccc(C(F)(F)F)cc3)c(=O)[nH]2)c1", "IC50", "< 50 nM"),
    ("CC(C)(C)C(=O)NCc1ccc(Cl)c(-c2nn(-c3ccc(Cl)c(F)c3)c(=O)[nH]2)c1", "IC50", "< 50 nM"),
    ("O=C(NCc1cc(-c2nn(-c3ccc(C(F)(F)F)cc3)c(=O)[nH]2)c(Cl)cc1F)[C@H]1CCCO1", "IC50", "< 50 nM"),
    ("CC(C)(C)C(=O)NCc1ccc(Cl)c(-n2nc(-c3ccc(C(F)(F)F)c(F)c3)[nH]c2=O)c1", "IC50", "< 50 nM"),
    ("CC(C)(C)C(=O)NCc1ccc(Cl)c(-c2nn(-c3ccc(C(F)(F)F)cc3F)c(=O)[nH]2)c1", "IC50", "< 50 nM"),
    ("Cc1ccc(CNC(=O)C(C)(C)CF)c(C)c1-c1nn(-c2ccc(C#CC3CC3)cc2)c(=O)[nH]1", "IC50", "> 100 nM"),
    ("O=C(NCc1ccc(Cl)c(-c2nn(-c3ccc(C(F)(F)F)cc3)c(=O)[nH]2)c1)[C@H]1CCCO1", "IC50", "< 50 nM"),
    ("CC(C)(C)C(=O)NCc1cc(-c2nn(-c3ccc(F)c(Cl)c3)c(=O)[nH]2)c(Cl)cc1F", "IC50", "< 50 nM"),
    ("COc1cc(-n2nc(-c3c(F)cccc3Cl)[nH]c2=O)ccc1-c1nc2cc(C)c(C)cc2n1C", "IC50", "50 to 100 nM"),
    ("O=C(Nc1ccc(C(F)(F)F)cc1)c1ccc(-n2nc(-c3c(F)cccc3Cl)[nH]c2=O)cc1", "IC50", "> 100 nM"),
    ("O=c1[nH]c(-c2c(F)cccc2Cl)nn1-c1ccc(C#Cc2ccc(C(F)(F)F)cc2Cl)cc1", "IC50", "< 50 nM"),
    ("CC(C)(C)C(=O)NCc1cc(-c2nn(-c3ccc(C(F)(F)F)nc3)c(=O)[nH]2)c(Cl)cc1F", "IC50", "< 50 nM"),
    ("CC(C)(C)C(=O)NCc1ccc(Cl)c(-n2nc(-c3ccc(Cl)cc3F)[nH]c2=O)c1F", "IC50", "> 100 nM"),
    ("Cc1ccc(-n2nc(-c3cc(CNC(=O)C(C)(C)C)ccc3Cl)[nH]c2=O)cc1Cl", "IC50", "< 50 nM"),
    ("CC(C)(CF)C(=O)NCc1cc(-c2nn(-c3ccc(Cl)cc3)c(=O)[nH]2)c(Cl)cc1F", "IC50", "< 50 nM"),
    ("CC(C)(C)S(=O)(=O)NCc1ccc(Cl)c(-c2nn(-c3ccc(C(F)(F)F)cc3)c(=O)[nH]2)c1", "IC50", "< 50 nM"),
    ("O=c1[nH]c(-c2c(F)cccc2Cl)nn1-c1ccc(C#Cc2cc(Cl)ccc2Cl)cc1", "IC50", "< 50 nM"),
    ("COc1cc(-c2nn(-c3c(Cl)cccc3Cl)c(=O)[nH]2)ccc1C#Cc1ccc(C(F)(F)F)cc1Cl", "IC50", "< 50 nM"),
    ("COc1cc(-n2nc(-c3c(F)cccc3Cl)[nH]c2=O)ccc1C#Cc1cccc(Cl)c1F", "IC50", "< 50 nM"),
    ("COc1cc(-n2nc(-c3c(F)cccc3Cl)[nH]c2=O)ccc1C(=O)Nc1ccc(F)c(C(F)(F)F)c1", "IC50", "< 50 nM"),
    ("CC(C)S(=O)(=O)NCc1cnc(C(F)F)c(-c2nn(-c3ccc(C(F)(F)F)cc3)c(=O)[nH]2)c1", "IC50", "50 to 100 nM"),
    ("O=c1[nH]c(-c2c(F)cccc2Cl)nn1-c1ccc(-c2cccc(OC(F)(F)F)c2)cc1", "IC50", "50 to 100 nM"),
    ("O=C(NCc1cc(-c2nn(-c3ccc(Cl)cc3)c(=O)[nH]2)c(Cl)cc1F)c1ccccc1F", "IC50", "< 50 nM"),
]
